Test system: DAPK2;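 note: KINOMEscan kinase panel screen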
conditions used: concentration: 1 μM, replicates: in singlicate; n = 1
Listed below: %Inh values for each entry.
Entry rule: numbers only, all in %.

Below, each entry is followed by its recorded %Inh result.
Answer with the recorded %Inh for the compound listed here: Cl.N#CCc1ccc(Nc2nccc(Nc3ccc(Oc4ccccc4)cc3)n2)cc1 60

Answer with the recorded %Inh for the compound listed here: Nc1ncc(-c2ccc3nccc(-c4ccncc4)c3c2)cc1S(=O)(=O)N1CCCCC1 26

Answer with the recorded %Inh for the compound listed here: CN(c1ccc(F)c(NC(=O)c2cccc(OC(C)(C)C#N)c2Cl)c1)c1ccc2nc(NC(=O)C3CC3)sc2n1 0

***
Answer with the recorded %Inh for the compound listed here: Cc1ccc(O)cc1Nc1ccnc2ccc(C(C)(C)C)cc12 8

Answer with the recorded %Inh for the compound listed here: COC(=O)Nc1nc2ccc(Oc3ccc(NC(=O)Nc4cc(C(F)(F)F)ccc4F)cc3)cc2[nH]1.Cl 0
